Entry source: the RNAGym collection of RNA variant scans (doi:10.1038/nmeth.2970)

B1: NELF-E aptamer (parent)
chain: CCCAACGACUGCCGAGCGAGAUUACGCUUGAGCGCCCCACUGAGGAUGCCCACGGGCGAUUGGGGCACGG

variants of: B1; test: HiTS-RAP; settings: with NELF-E (Drosophila)
Hi! Could you tag entries with Kd below 6 nM as 1, and those at or above as 0? Much appreciated.

Before answering, review these 3 worked examples.
{"mutation-string": "G11U C17U", "class-assignment": 1}
{"mutation-string": "G14U U29A", "class-assignment": 1}
{"mutation-string": "C9G C38U", "class-assignment": 0}

Exercise: Just wondering, is Kd of G62A below 6 nM?
Solution: 0

Exercise: Just wondering, is Kd of A24G G63U below 6 nM?
Solution: 0

Exercise: Just wondering, is Kd of G14A G16U below 6 nM?
Solution: 0

Exercise: Just wondering, is Kd of A19G A31G below 6 nM?
Solution: 0

Exercise: Just wondering, is Kd of A31U U41G below 6 nM?
Solution: 0

Exercise: Just wondering, is Kd of A5U C17U below 6 nM?
Solution: 0
